Form field: TGI (one value per entry).
System: MCF7 breast
experimentSummary: NCI tumour cell line growth inhibition, 48 h

# molecule, measurementTarget, TGI
measured = [
    ("O=C(Nc1ccccc1C(=O)NCc1ccccc1)/C(=C/c1ccccc1)NC(=O)c1ccccc1", "MCF7 breast", "> 100 µM"),
    ("CN(C)CCCNc1ccc2nnn3c4ccc(O)cc4c(=O)c1c23", "MCF7 breast", "24.8 µM"),
    ("Cc1ccc(S(=O)(=O)c2nc(-c3ccccc3)oc2S(C)=O)cc1 (stereo unspecified)", "MCF7 breast", "3.62 µM"),
    ("CSCCCNC(=O)c1ccc2c(c1)/C(=C/c1[nH]c(C)cc1C)C(=O)N2", "MCF7 breast", "> 100 µM"),
    ("COc1cc(C)c(C2NC(=O)c3ccccc3N2)cc1C (stereo unspecified)", "MCF7 breast", "> 89 µM"),
    ("Cc1cc(O)c(C2=NN(c3ccc(S(N)(=O)=O)cc3)C(c3ccc(Cl)cc3)C2)c(C)c1Cl (stereo unspecified)", "MCF7 breast", "10.5 µM"),
    ("Cc1cc2c([nH]c3ccccc32)c(O)c1-c1c(C)cc2c([nH]c3ccccc32)c1O", "MCF7 breast", "25 µM"),
    ("CCOP(=O)(OCC)/C(=C/c1cccs1)CC(C)=O", "MCF7 breast", "> 100 µM"),
    ("C=CCP(=O)(CC=C)C(Cl)Cl", "MCF7 breast", "> 100 µM"),
    ("COc1ccc(-c2nc(-c3nc4ccc(F)cc4[nH]3)c3ccccn23)cc1", "MCF7 breast", "> 100 µM"),
    ("CC1=Nc2ccccc2/C1=C\\c1c(C)[nH]c2ccccc12", "MCF7 breast", "18.3 µM"),
    ("O=C(N/N=C/C=C/c1ccccc1)c1ccccc1Nc1ccccc1C(=O)N/N=C/C=C/c1ccccc1", "MCF7 breast", "> 100 µM"),
    ("CC1(C)CC(=O)C2(CC(CSc3ccccc3)C(CS(=O)(=O)c3ccccc3)C2)C(=O)C1 (stereo unspecified)", "MCF7 breast", "> 100 µM"),
    ("O=C(Nc1ccc(-c2nc(-c3cccc(OCCN4CCOCC4)c3)c(-c3ccnc(Br)c3)[nH]2)cc1)c1ccccc1", "MCF7 breast", "3.14 µM"),
    ("c1ccc(-c2nc(N3CCOCC3)c3c4c(sc3n2)CCCCCC4)nc1", "MCF7 breast", "12.8 µM"),
    ("S=c1nc(N/N=C/c2ccco2)c2cn[nH]c2[nH]1", "MCF7 breast", "> 100 µM"),
    ("C#CCn1c(=O)c(C)cn(/C(=C\\C(=O)OCC)C(=O)OCC)c1=O", "MCF7 breast", "11.9 µM"),
    ("Nc1ccc(S(=O)(=O)Nc2nc3ccccc3nc2N2CCCCCC2)cc1", "MCF7 breast", "> 100 µM"),
    ("O=C(O)COc1cc(-c2ccccc2)nc2cc(F)ccc12", "MCF7 breast", "> 100 µM"),
    ("O=C(NCCc1ccccn1)OCc1nc2nc(Cl)nc(N3CCOCC3)c2[nH]1", "MCF7 breast", "5.17 µM"),
    ("O=C(c1ccccc1)c1c(NCC(O)CN2CCOCC2)n(Cc2ccccc2)c(=O)n(Cc2ccccc2)c1=O (stereo unspecified)", "MCF7 breast", "> 100 µM"),
]

Cited source: PubChem BioAssay (NCI)
